# Procedure details: AUC in New Zealand rabbit at 12 mg/kg/day, iv for 4 days by HPLC
# Type: ADME, organism-based, Oryctolagus cuniculus
# Parameters: route intravenous
# Measurement conditions: plasma
Metric: AUC at 96 h (µg·h/mL)
Return type: number; implicit unit µg·h/mL.

# input Quick one: AUC at 96 h for `CCCCCCCCCC(=O)N[C@@H](Cc1c[nH]c2ccccc12)C(=O)N[C@H](CC(N)=O)C(=O)N[C@@H](CC(=O)O)C(=O)N[C@@H]1C(=O)NCC(=O)N[C@@H](CCCN)C(=O)N[C@@H](CC(=O)O)C(=O)N[C@H](C)C(=O)N[C@@H](CC(=O)O)C(=O)NCC(=O)N[C@H](CO)C(=O)N[C@@H]([C@H](C)CC(=O)O)C(=O)N[C@@H](CC(=O)c2ccccc2N)C(=O)O[C@@H]1C` ?
# output 719

* * *

# Procedure details: AUC in human at 10 mg/kg, iv by HPLC
# Format: ADME, organism-based
# Design: dose 10 mg/kg, route intravenous
# Measurement conditions: plasma
Metric: AUC (µg·h/mL)
Return type: number; implicit unit µg·h/mL.

# input Quick one: AUC for `CCCCCCCCCC(=O)N[C@@H](Cc1c[nH]c2ccccc12)C(=O)N[C@H](CC(N)=O)C(=O)N[C@@H](CC(=O)O)C(=O)N[C@@H]1C(=O)NCC(=O)N[C@@H](CCCN)C(=O)N[C@@H](CC(=O)O)C(=O)N[C@H](C)C(=O)N[C@@H](CC(=O)O)C(=O)NCC(=O)N[C@H](CO)C(=O)N[C@@H]([C@H](C)CC(=O)O)C(=O)N[C@@H](CC(=O)c2ccccc2N)C(=O)O[C@@H]1C` ?
# output 1040

* * *

# Procedure details: Half life in New Zealand rabbit at 12 mg/kg/day, iv […] by HPLC
# Type: ADME, organism-based, Oryctolagus cuniculus
# Set-up: route intravenous
# Measurement conditions: in vivo
Metric: half-life (h)
Return type: number; implicit unit h.

# input Quick one: half-life for `CCCCCCCCCC(=O)N[C@@H](Cc1c[nH]c2ccccc12)C(=O)N[C@H](CC(N)=O)C(=O)N[C@@H](CC(=O)O)C(=O)N[C@@H]1C(=O)NCC(=O)N[C@@H](CCCN)C(=O)N[C@@H](CC(=O)O)C(=O)N[C@H](C)C(=O)N[C@@H](CC(=O)O)C(=O)NCC(=O)N[C@H](CO)C(=O)N[C@@H]([C@H](C)CC(=O)O)C(=O)N[C@@H](CC(=O)c2ccccc2N)C(=O)O[C@@H]1C` ?
# output 5

* * *

# Procedure details: AUC in New Zealand rabbit at 18 mg/kg/day, iv for 4 days by HPLC
# Assay type: ADME, organism-based, Oryctolagus cuniculus
# Design: route intravenous
# Measurement conditions: plasma
Metric: AUC at 96 h

# input Quick one: AUC at 96 h for `CCCCCCCCCC(=O)N[C@@H](Cc1c[nH]c2ccccc12)C(=O)N[C@H](CC(N)=O)C(=O)N[C@@H](CC(=O)O)C(=O)N[C@@H]1C(=O)NCC(=O)N[C@@H](CCCN)C(=O)N[C@@H](CC(=O)O)C(=O)N[C@H](C)C(=O)N[C@@H](CC(=O)O)C(=O)NCC(=O)N[C@H](CO)C(=O)N[C@@H]([C@H](C)CC(=O)O)C(=O)N[C@@H](CC(=O)c2ccccc2N)C(=O)O[C@@H]1C` ?
# output 965 µg·h/mL
